Assignment: determine reported pIC50 for the given molecules.
pIC50: −log10 of the molar value.

Item COc1c(F)c(-c2ccccc2F)nc2c(F)c(-c3nn([C@H]4C[C@@](C)(O)C4)c(N)c3C(N)=O)ccc12 was tested on IGF-1R (Homo sapiens, UniProt P08069); the reported pIC50 is ≥ 7.00

Kindly note: IGF-1R (Homo sapiens, UniProt P08069), C[C@]1(O)C[C@@H](n2nc(-c3ccc4c(OC(F)F)cc(-c5ccccc5)nc4c3)c(C(N)=O)c2N)C1 , pIC50 value reported: ≥ 7.00

Assay IGF-1R (Homo sapiens, UniProt P08069), sample COC(=O)N1CCC(n2nc(-c3ccc4ccc(-c5ccccc5)nc4c3)c(C(N)=O)c2N)CC1 , pIC50 read: 4.70 to 6.00

Per the reported IGF-1R (Homo sapiens, UniProt P08069) data, NC(=O)c1c(-c2ccc3ccc(-c4ccccc4)nc3c2)nn(C2CC(N3CCC3)C2)c1N (stereo not drawn) has pIC50 of 6.00 to 7.00

Recorded pIC50 for NC(=O)c1c(-c2ccc3ccc(-c4ccccc4)nc3c2)nn(C2CC(N3CCNCC3)C2)c1N (stereo not drawn) on IGF-1R (Homo sapiens, UniProt P08069) was ≥ 7.00

# value of pIC50, IGF-1R (Homo sapiens, UniProt P08069), item C[C@]1(O)C[C@@H](n2nc(-c3ccc4ccc(-c5ccc(F)cc5)nc4c3)c(C(N)=O)c2N)C1 = 6.00 to 7.00

Assay IGF-1R (Homo sapiens, UniProt P08069), sample COc1cc(-c2ccccc2F)nc2cc(-c3nn([C@H]4C[C@](C)(O)C4)c(N)c3C(N)=O)ccc12 , pIC50 read: ≥ 7.00

Entry CN1CCN(C[C@H]2C[C@H](n3nc(-c4ccc5ccc(-c6ccccc6)nc5c4)c(C(N)=O)c3N)C2)CC1 under IGF-1R (Homo sapiens, UniProt P08069) had pIC50 of ≥ 7.00

Reported pIC50 (IGF-1R (Homo sapiens, UniProt P08069)) for entry CC(=O)N1CCC(n2nc(-c3ccc4ccc(-c5ccccc5)nc4c3)c(C(N)=O)c2N)CC1 is 4.70 to 6.00

Entry NC(=O)c1c(-c2ccc3ccc(-c4ccccc4)nc3c2)nn(C2CC(=O)C2)c1N : pIC50 on IGF-1R (Homo sapiens, UniProt P08069) = 4.70 to 6.00

pIC50 value, target or system IGF-1R (Homo sapiens, UniProt P08069), for NC(=O)c1c(-c2ccc3ccc(-c4ccccc4)nc3c2)nn(C2CCN(C(N)=O)CC2)c1N : 4.70 to 6.00

pIC50 value, target or system IGF-1R (Homo sapiens, UniProt P08069), for NC(=O)c1c(-c2ccc3ccc(-c4ccccc4)nc3c2)nn2c1NCC(C(N)=O)C2 (stereo not drawn) : 4.70 to 6.00

Record COc1c(F)c(-c2ccccc2F)nc2cc(-c3nn([C@H]4C[C@@](C)(O)C4)c(N)c3C(N)=O)ccc12 has IGF-1R (Homo sapiens, UniProt P08069) pIC50 equal to ≥ 7.00

Param item: COc1cc(-c2cccc(F)c2)nc2cc(-c3nn([C@H]4C[C@](C)(O)C4)c(N)c3C(N)=O)ccc12 ; param system: IGF-1R (Homo sapiens, UniProt P08069); output pIC50: ≥ 7.00

Reported IGF-1R (Homo sapiens, UniProt P08069) pIC50 for item COc1cc(-c2ccccc2F)nc2c(F)c(-c3nn([C@H]4C[C@](C)(O)C4)c(N)c3C(N)=O)ccc12 was ≥ 7.00
